- tested-target: recombinant human CD38 (human, UniProt P28907 43-300, limits assumed)
- method-description: ELISA: plate coated with 1 ug/ml recombinant human CD38 ECD, serially diluted antibody, OD450
metric: EC50 (read off the curve)

INSERT INTO assay_data (binder, metric, assay_result) VALUES
  ('23B3 (antibody, human IgG1, kappa, V domains shown, Rabbit-human chimeric anti-CD38: rabbit VH and VL on human IgG1 and kappa constant regions) VH: QSVEESGGRLVTPGTPLTLTCTVSGFSLSNYDMTWVRQAPGRGLEWIGVISSGDNTNYARWAKGRFTISKTSSTTVDLKITSPTTEDTATYFCARILYNKGRYYFTFWGPGTLVTVSS VL: AQVLTQTPSSVSAAVGGTVTINCQSSQSIANSDELAWYQQKPGQPPKLLIYDASTLAPGVPSRFSGSGSGTQFTLTISGVQSDDAATYYCQGTVYDSGWYAAFGGGTEVVVKR', 'EC50 (read off the curve)', '~0.06 nM');
